Measured values drawn from patent US20230233569A1 for this set.

- Measurement Target: KRAS WT (Homo sapiens, UniProt P01116+P62937)
- Sequence (P01116 1-169 isoform P01116-2 limits assumed): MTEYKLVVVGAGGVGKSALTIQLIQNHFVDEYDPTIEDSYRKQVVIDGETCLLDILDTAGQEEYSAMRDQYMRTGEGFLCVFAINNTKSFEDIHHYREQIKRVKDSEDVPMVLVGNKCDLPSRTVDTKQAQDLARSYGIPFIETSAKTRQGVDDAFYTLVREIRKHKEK
- Sequence (P62937 whole entry): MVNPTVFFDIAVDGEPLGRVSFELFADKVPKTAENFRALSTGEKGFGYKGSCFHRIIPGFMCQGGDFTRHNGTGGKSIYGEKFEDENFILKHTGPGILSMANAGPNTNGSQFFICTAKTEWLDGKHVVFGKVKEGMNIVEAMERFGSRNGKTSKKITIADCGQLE
- Test: Disruption of BRAF RBD interaction with Ras (FRET / MOA assay, with Cyclophilin A)
- Type: biochemical
- Test Parameters: KRAS WT; read-out: KRAS WT FRET data IC50
Listing: IC50 of selected compounds

| Smiles Representation | Assay Metric | Reported Result |
| --- | --- | --- |
| C=CC(=O)N1CC[C@H](C(=O)N(C)[C@H](C(=O)N[C@H]2Cc3cc(O)cc(c3)-c3ccc4c(c3)c(c(C3=C(COC)COCC3)n4CC)CC(C)(C)COC(=O)[C@@H]3CCCN(N3)C2=O)C(C)C)C1 | IC50 | 1 to 10 µM |

Proceeding to the next compound to report its IC50.
Per the records, this compound ( CCn1c(-c2ccccc2CN(C)C)c2c3cc(ccc31)-c1cc(O)cc(c1)C[C@H](NC(=O)[C@H](C(C)C)N(C)C(=O)c1ccc(NC(=O)/C=C/CN(C)C)cn1)C(=O)N1CCC[C@H](N1)C(=O)OCC(C)(C)C2 ) has IC50 equal to > 10 µM
